test: Human pregnane X receptor (PXR) small molecule agonists, qHTS cell viability counter screen (AID 1346977); conditions: PXR-Luc HepG2 viability, CellTiter-Fluor, 24 h; series mostly up to 92.4 µM; further: nearly all actives have a fitted effect of over 50% in size
Results filed as inconclusive are left out. Calls of active or inactive are those of the source. The call rests on the fitted dose curve; in most records, active means well fitted cell-killing curve with a large enough effect in the repeat runs; inconclusive means weak or mixed curves, or effect the other way; inactive means flat fitted curve, though single readings scatter.
Answer with one of the outcomes given here: active, inactive

A selection of reference data follows.
Cc1cc(N)c2cc(NC(=O)Nc3ccc4nc(C)cc(N)c4c3)ccc2n1 : inactive
Cc1cccc(C)c1OCC(=O)N[C@@H](Cc1ccccc1)[C@@H](O)C[C@H](Cc1ccccc1)NC(=O)[C@H](C(C)C)N1CCCNC1=O : active
CCCCCCCCCCCCCCOS(=O)(=O)O : inactive

For the next question, use this molecule.
Call for entry CC1(c2ccccc2)OC(C(=O)O)=CC1=O (centres undefined) :
inactive

---

target: Cytochrome P450 2C9 (Homo sapiens) (UniProt P11712); experiment: Cytochrome P450 Family 2 Subfamily C Member 9 (CYP2C9) small molecule antagonists: luciferase reporter qHTS assay (AID 1671198); conditions: P450-Glo CYP2C9 enzyme assay, luciferin luminescence; series mostly up to 115 µM; further: nearly all actives have a fitted effect of over 50% in size
Sequence (P11712 whole entry, looked up): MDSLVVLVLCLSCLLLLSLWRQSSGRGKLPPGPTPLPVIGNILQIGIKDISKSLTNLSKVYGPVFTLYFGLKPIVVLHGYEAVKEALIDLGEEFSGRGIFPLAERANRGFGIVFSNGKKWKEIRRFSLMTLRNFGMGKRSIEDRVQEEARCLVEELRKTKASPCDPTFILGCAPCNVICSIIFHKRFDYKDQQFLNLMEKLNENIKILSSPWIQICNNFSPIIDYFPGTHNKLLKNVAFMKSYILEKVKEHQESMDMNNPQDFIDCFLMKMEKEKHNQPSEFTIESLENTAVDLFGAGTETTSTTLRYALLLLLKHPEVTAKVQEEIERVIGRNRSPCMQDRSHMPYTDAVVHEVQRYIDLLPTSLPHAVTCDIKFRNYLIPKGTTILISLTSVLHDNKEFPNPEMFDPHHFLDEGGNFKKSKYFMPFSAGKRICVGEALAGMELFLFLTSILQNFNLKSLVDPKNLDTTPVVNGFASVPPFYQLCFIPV
Inconclusive results are not listed. Calls of active or inactive are those of the source. Calls follow the shape of the dose curve; as a rule, active = well fitted inhibition curve with a large enough effect in the repeat runs; inconclusive = weak or mixed curves; inactive = no such curve, though single readings can be large or run the other way.
Answer with one of the outcomes given here: true (1) for active, false (0) for inactive

A selection of reference data follows.
CNCCCCOc1ccccc1Cc1ccccc1 : false (0)
COc1cc(Cl)c(OC)cc1N : true (1)
CCc1cc(C2=C(C(=O)O)N(c3ccccc3C(F)(F)F)S(=O)(=O)c3ccccc32)cc2c1OCO2 : true (1)
CCn1cc(C(=O)O)c(=O)c2cnc(N3CCNCC3)nc21 : false (0)
CCCCCCCC#N : false (0)
O=C(Nc1ccccc1)c1ccccc1O : true (1)

For the next question, use this compound.
Call for entry NS(=O)(=O)c1ccc(N2CCCCS2(=O)=O)cc1 :
false (0)

---

assay: A CellTox Green Cytotoxicity Assay to monitor cytotoxicity in HepG2 cells - 40 hour (AID 1224879); conditions: CellTox Green fluorescence; series mostly up to 76.8 µM; further: nearly all actives have a fitted effect of over 40% in size; further: potency means the concentration at half of the fitted maximal effect
Records with an inconclusive call do not appear. Active and inactive are the calls of the source. Calls come from the whole dose curve; as a rule, active = well fitted activation curve with a large enough effect in the repeat runs; inconclusive = weak or mixed curves; inactive = flat fitted curve, though single readings scatter.
QUANTITY: Potency

Consider the worked cases shown below.
O=P(O)(OCc1ccccc1)OCc1ccccc1 : inactive
CC(CC=O)c1ccccc1 (stereo not drawn) : inactive
C[C@@H]1C[C@H]2O[C@@]3(O[C@@H]2C(C)(C)O)[C@H](O)[C@@]2(C)[C@@H]4CC[C@H]5C(C)(C)[C@@H](O[C@@H]6OC[C@@H](O)[C@H](O)[C@H]6O)CC[C@@]56C[C@@]46CC[C@]2(C)[C@@H]13 : inactive
CCOC(=O)C(F)(F)F : inactive
CCOC(=O)C(O)c1ccccc1 (stereo not drawn) : inactive

Returns the measured Potency for the input molecule. Input: NC(=O)C(c1ccccc1)(c1ccccc1)[C@@H]1CCN(CCc2ccc3c(c2)CCO3)C1
23.9 µM (active)

Returns the measured Potency for the input molecule. Input: OCCNCc1ccccc1
inactive

---

Target: Nuclear receptor subfamily 1 group I member 2 (Homo sapiens) (UniProt O75469)
Sequence (O75469 whole entry, looked up): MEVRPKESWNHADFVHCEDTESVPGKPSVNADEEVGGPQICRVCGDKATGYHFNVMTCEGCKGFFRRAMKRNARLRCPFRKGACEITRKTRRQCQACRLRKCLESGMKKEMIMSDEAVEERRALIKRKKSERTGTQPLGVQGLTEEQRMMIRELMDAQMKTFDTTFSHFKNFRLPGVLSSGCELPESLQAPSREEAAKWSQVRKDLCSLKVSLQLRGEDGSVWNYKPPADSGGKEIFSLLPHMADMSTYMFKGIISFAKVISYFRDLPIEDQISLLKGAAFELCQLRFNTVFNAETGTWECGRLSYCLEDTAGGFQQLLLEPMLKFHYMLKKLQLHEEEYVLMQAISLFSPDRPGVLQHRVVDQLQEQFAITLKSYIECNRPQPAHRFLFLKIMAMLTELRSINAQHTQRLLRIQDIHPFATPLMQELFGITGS
Assay: Human pregnane X receptor (PXR) small molecule agonists, qHTS assay (AID 1346982); further: nearly all actives have a fitted effect of over 35% in size
Settings: PXR-Luc HepG2, CYP3A4 luciferase reporter, 24 h; series mostly up to 92.4 µM
Description: National Center for Advancing Translational Sciences [NCATS] NIH Chemical Genomics Center [NCGC] U.S. Environmental Protection Agency [EPA] National Institutes of Environmental Health Sciences [NIEHS] National Toxicology Program [NTP] The human pregnane X receptor (hPXR) regulates the expression of several drug metabolizing enzymes and induction of these proteins is a major mechanism for developing drug resistance in cancer. […]
Inconclusive results are not listed. Calls of active or inactive are those of the source. The call rests on the fitted dose curve; in most records, active means well fitted activation curve with a large enough effect in the repeat runs; inconclusive means weak or mixed curves; inactive means no such curve, though single readings can be large or run the other way.
Answer with one of the outcomes given here: active, inactive

A selection of reference data follows.
S=C([S-])NCCNC(=S)[S-].[Mn+2] : active
CCO[Si](CCCCl)(OCC)OCC : inactive
O=C(O)c1ccco1 : inactive
CCc1c(C(=O)NN2CCCCC2)nn(-c2ccc(Cl)cc2Cl)c1-c1ccc(Br)cc1 : active

Call for entry COS(=O)(=O)C(F)(F)F :
inactive

Call for entry CC(C)Nc1ccc(NC(C)C)c2c1C(=O)c1ccccc1C2=O :
active

Call for entry CC(C)OC(=O)C(C)N(C(=O)c1ccccc1)c1ccc(F)c(Cl)c1 (centres undefined) :
active

Call for entry CCCCCCCCCOS(=O)(=O)O :
inactive

Call for entry O=C(O)CC(=O)C(=O)O :
active

Call for entry Clc1ccc2c(c1)CCc1cccnc1C2=C1CCNCC1 :
inactive

Call for entry O=C1CCC(=O)O1 :
inactive

Call for entry C1CCCNCCC1 :
inactive
